Assay: Exploratory single dose PK/PD (1.0/5.0/10.0 mg/kg) in cats: pharmacokinetics
Type: in vivo
Conditions: male, domestic short hair, plasma; 5.0 mg/kg single oral, cat; free base by LC-MS/MS
Description: […] PK data for 1-[(3-cyano-pyridin-2-yl)methyl]-3-methyl-7-(2-butyn-1-yl)-8-[3-(R)-amino-piperidin-1-yl]-xanthine free base were determined with a validated LC-MS/MS method and are summarized in Table 6.
Structures can show the parent of a compound that is named as a salt.
measurement-type: Tmax (h)
A number alone suffices; assume h.

Return the recorded Tmax value; entry: CC#CCn1c(N2CCC[C@@H](N)C2)nc2c1c(=O)n(Cc1ncccc1C#N)c(=O)n2C [monohydrochloride]
1.83
